Tested on: soybean (Glycine max)
Assay: Test B pre-/postemergence
Assay type: in vivo
Settings: Rate 62 g/ha, Postemergence
Experimental: […] At the same time, these crop and weed species were also treated with postemergence applications of test chemicals formulated in the same manner. […] Treated plants and controls were maintained in a greenhouse for twelve to sixteen days, after which all species were compared to controls and visually evaluated. […]
Could you please report measured Soybean plant response rating for the items listed next?
The response must contain the number and no unit.

Looking up "Cc1cnc(-c2ccc(C(F)(F)F)cc2)nc1C(=O)c1ccc(C(F)(F)F)cc1" , I see its Soybean plant response rating listed as 2

Entry "CCc1cnc(-n2ccc(C(F)(F)F)n2)nc1C(=O)c1cccc(C#N)c1" , Soybean plant response rating reported as 2

// Soybean plant response rating value for "Cc1cnc(-n2ccc(C(F)(F)F)n2)nc1C(=O)c1cccc(C(F)(F)F)c1" : 6

Value of measured Soybean plant response rating for the entry "Cc1cnc(-c2ccc(C(F)(F)F)cc2)nc1C(=O)c1cccc(C(F)(F)F)c1" : 8

Documented Soybean plant response rating of "O=C(c1cccc(C(F)(F)F)c1)c1ccnc(-n2ccc(C(F)(F)F)n2)n1" : 1

// sample "Cc1cnc(-n2cnc(C(F)(F)F)c2)nc1C(=O)c1cccc(OC(F)(F)F)c1" , its Soybean plant response rating was 0

For this compound ( "O=C(c1cccc(C(F)(F)F)c1)c1ccnc(-c2ccc(F)cc2F)n1" ), measured Soybean plant response rating is 0

Lab note: "Cc1cnc(-n2cnc(C(F)(F)F)c2)nc1C(=O)c1cccc(C(F)(F)F)c1" gave Soybean plant response rating of 4

Record "Cc1cnc(-n2ccc(C(F)(F)C(F)(F)F)n2)nc1C(=O)c1cccc(OC(F)(F)F)c1" . Reported Soybean plant response rating: 1

====

Test system: giant foxtail (Setaria faberii)
Test: Test B pre-/postemergence
Format: in vivo
Conditions: Rate 125 g/ha, Postemergence
Would you mind telling me the reported Plant response rating, Giant foxtail of each entry?
Field format: numeric only.

// field: Plant response rating, Giant foxtail; key: Cc1cnc(-c2ccc(C(F)(F)F)cc2)nc1Cn1cnc(C(F)(F)F)n1 [Compound 11] ; value = 4

The recorded Plant response rating, Giant foxtail for Cc1cnc(-c2ccc(C(F)(F)F)cc2)nc1Cc1cccc(C(F)(F)F)c1 [Example 1] is 7

Cc1cnc(-c2ccc(C(F)(F)F)cc2)nc1Cn1ccc(C(F)(F)C(F)(F)F)n1 [Compound 14] has a reported Plant response rating, Giant foxtail of 1

Entry under test: Cc1cnc(-c2cccc(C(F)(F)F)c2)nc1Cc1cccc(C(F)(F)F)c1 [Compound 24] . Its Plant response rating, Giant foxtail was 2

====

Tested on: blackgrass (Alopecurus myosuroides)
Assay: Test B pre-/postemergence
Assay type: in vivo
Conditions: Rate 62 g/ha, Postemergence
Assignment: determine reported Blackgrass plant response rating for the given molecules.

Blackgrass plant response rating in this record for Cc1cnc(-c2ccc(C(F)(F)F)cc2)nc1C(=O)c1cccc(C(F)(F)F)c1 [Compound 73] : 7

Record Cc1cnc(-n2ccc(C(F)(F)C(F)(F)F)n2)nc1C(=O)c1cccc(C(F)(F)F)c1 [Compound 68] . Reported Blackgrass plant response rating: 2

Given item Cc1cnc(-n2ccc(C(F)(F)F)n2)nc1C(=O)c1cccc(OC(F)(F)F)c1 [Compound 66] , the value recorded as its Blackgrass plant response rating is 2

Sure, the documented Blackgrass plant response rating for O=C(c1cccc(C(F)(F)F)c1)c1ccnc(-c2ccc(C(F)(F)F)cc2)n1 [Compound 77] is 0

get_value(item= CCc1cnc(-n2ccc(C(F)(F)F)n2)nc1C(=O)c1cccc(C(F)(F)F)c1 [Compound 69] , readout=Blackgrass plant response rating) returns 2

Blackgrass plant response rating recorded for this molecule, Cc1cnc(-c2ccc(C(F)(F)F)cc2)nc1C(=O)c1cccc(OC(F)(F)F)c1 [Compound 75] , is 3

Record N#Cc1ccc(-c2nccc(C(=O)c3cccc(C(F)(F)F)c3)n2)cc1 [Compound 78] , field Blackgrass plant response rating: 0

So, Cc1cnc(-c2ccc(C(F)(F)F)cc2)nc1Cn1cc(Br)cn1 [Compound 54] ? Its Blackgrass plant response rating was 1

Blackgrass plant response rating measured on Cc1cnc(-c2ccc(C(F)(F)F)cc2)nc1C(=O)c1ccc(C(F)(F)F)cc1 [Compound 74] = 0
